tested on: NCI-H322M lung; experiment: NCI-60 one-dose screen, 48 h (100 = growth as untreated, 0 = no growth, -100 = all killed); conditions: 10 µM unless noted
About 83,000 compounds went through this panel and 20% of them were active in at least one assay; those are over-represented in the sample as a whole.
Parameter: growth. Scope: all listed entries.
Quick reminder: number only, in %, skip the unit.

Note to self: growth recorded for CC[C@]1(O)C[C@H]2CN(CCc3c([nH]c4ccccc34)C(C(=O)OC)(c3cc4c(cc3OC)N(C)[C@H]3[C@@](O)(C(=O)OC)[C@H](OC(C)=O)[C@]5(CC)[C@@H]6C[C@@H]6CN6CC[C@]43[C@@H]65)C2)C1 (stereo not given in full) was 53.8

---

Parameter: growth. Scope: all listed entries.
test system: MDA-MB-435 melanoma; test: NCI-60 one-dose screen, 48 h (100 = growth as untreated, 0 = no growth, -100 = all killed); settings: 10 µM unless noted
About 83,000 compounds went through this panel and 20% of them were active in at least one assay; those are over-represented in the sample as a whole. Active and inactive are the calls of the source. Rule for the calls: active = growth percent below 10; inactive = the rest.

Consider the worked cases shown below.
N#CCCn1cnc2c(N)ncnc21
102% (inactive)
S=C(Cc1ccccc1)N1CCN(c2ccccc2Cl)CC1
104% (inactive)

Now examine the next entry.
Note to self: growth recorded for CCCCCCCCCCCCCCCC1=NC(C)(C)CN1C(C)C was -59.3% (active)

---

system: HCC-2998 colon; test: NCI-60 one-dose screen, 48 h (100 = growth as untreated, 0 = no growth, -100 = all killed); details: 10 µM unless noted
About 83,000 compounds went through this panel and 20% of them were active in at least one assay; those are over-represented in the sample as a whole. Active and inactive are the calls of the source. Rule for the calls: active = growth percent below 10; inactive = the rest.
measured.attribute: growth

N#CCCn1cnc2c(N)ncnc21
113% (inactive)
COc1cnc2c(c1)C(=O)c1c-2n(CCCN2CCCC2)c(=O)c2cc(Cl)ccc12
62.1% (inactive)
Cc1csc(N/N=C/c2ccncc2)n1
99.9% (inactive)
O=C1C=CN2C(=O)CC=CC2[C@@H]1O (stereo partly drawn)
114% (inactive)
CCCCSc1ncnc2c1ncn2C1CCCCO1 (stereo not drawn)
111% (inactive)
Nc1c(N)c2ccccc2c2ccccc12
103% (inactive)

Note to self: growth recorded for Cc1ccc2c(C)c3c(ccc4ccccc43)c[n+]2c1 was 72.6% (inactive)

Note to self: growth recorded for COc1cc(OC)c(Cl)cc1N was 106% (inactive)

---

Test system: HOP-62 NSCLC
Experiment: NCI-60 one-dose screen, 48 h (100 = growth as untreated, 0 = no growth, -100 = all killed)
Details: 10 µM unless noted
Method: Growth inhibition of the HOP-62 human Non-Small Cell Lung tumor cell line is measured as a screen for anti-cancer activity. Cells are grown in 96 well plates and exposed to the test compound for 48 hours. Compounds are tested at a single concentration, which is 10^-5 M for most compounds. The reported endpoint is percent growth (GI% or GIPRCNT), where numbers from 0 - 100% represent growth inhibition, and numbers from -100% - 0 represent cell death. […]
The panel holds about 83,000 compounds, 20% with a hit somewhere; the sample as a whole holds those more often. Activity calls are given as the source filed them. The calls were made as follows: active = growth percent below 10; inactive = the rest.
Parameter: growth. Scope: all listed entries.

Consider the worked cases shown below.
Clc1cc2nc(-c3ccccc3)c(-c3ccccc3)nc2cc1Cl
89.9% (inactive)
CCC(=O)OCc1ccc(OC)cc1
109% (inactive)
CCN1C(=O)C(C)C=C(C)C=C1C (stereo not given)
105% (inactive)

Note to self: growth recorded for CN(C)CCCN1c2ccccc2CCc2ccccc21 was 82.2% (inactive)

Note to self: growth recorded for COc1ccc(/C=N/NC(N)=S)c(OC)n1 was 116% (inactive)

Origin of measurements: PubChem BioAssay (NCI)
